Data origin: patent US20060063759A1

Cut-off 100 °C on melting point: below means fulfilled, at or above means not fulfilled.

Data request: Is melting point strictly under 100 °C for the entry `CCNS(=O)(=O)c1cc(C)ccc1C=C1c2ccccc2CCc2ccccc21` ?
Data returned: not fulfilled

Data request: // same read-out, input: `FC(F)c1ccccc1C=C1c2ccccc2CCc2ccccc21`
Data returned: fulfilled

Data request: Can you handle `O=Cc1ccccc1C=C1c2ccccc2CCc2ccccc21` next?
Data returned: not fulfilled

Data request: What do you get for `Cn1cnc(S(=O)(=O)Nc2cccc(C=C3c4ccccc4CCc4ccccc43)c2)c1` ?
Data returned: not fulfilled

Data request: // same read-out, input: `COc1ccc(C=C2c3ccccc3CCc3ccccc32)cc1N`
Data returned: fulfilled

Data request: // query: `Brc1ccccc1C=C1c2ccccc2CCc2ccccc21`
Data returned: not fulfilled

Data request: Quick one: `Oc1ccc(C=C2c3ccccc3CCc3ccccc32)cc1`
Data returned: fulfilled

Data request: Consider next the compound `COc1cccc(C=C2c3ccccc3CCc3ccccc32)c1OC` in the same way.
Data returned: not fulfilled

Data request: Note, next up: `CS(=O)(=O)Nc1cccc(C=C2c3ccc(Cl)cc3CCc3cc(Cl)ccc32)c1`
Data returned: not fulfilled

Data request: Now the same for `O=Cc1ccc(C=C2c3ccccc3CCc3ccccc32)cc1`
Data returned: not fulfilled

Data request: How about `CCS(=O)(=O)Nc1cccc(C=C2c3ccccc3CCc3ccccc32)c1` ?
Data returned: not fulfilled

Data request: Same read-out for `COc1ccc2c(c1)CCc1cc(OC)ccc1C2=Cc1cccc(NS(C)(=O)=O)c1` ?
Data returned: not fulfilled

Data request: Same question for `CN(c1cccc(C=C2c3ccccc3CCc3ccccc32)c1)S(C)(=O)=O` please.
Data returned: not fulfilled

Data request: Entry `Nc1cccc(C=C2c3ccccc3CCc3ccccc32)c1` please
Data returned: not fulfilled

Data request: Can you handle `COc1ccc(C=C2c3ccccc3CCc3ccccc32)cc1` next?
Data returned: not fulfilled

Data request: Record: `Brc1cccc(C=C2c3ccccc3CCc3ccccc32)c1`
Data returned: not fulfilled

Data request: Another compound to look at: `CCCNS(=O)(=O)c1cc(C)ccc1C=C1c2ccccc2CCc2ccccc21`
Data returned: not fulfilled

Data request: Also `Nc1ccc(C=C2c3ccccc3CCc3ccccc32)cc1` , if possible.
Data returned: not fulfilled

====

Please provide measured pKi for the entries that follow.
- measured_target: glucocorticoid receptor (Homo sapiens)
- Sequence (P04150 1-777): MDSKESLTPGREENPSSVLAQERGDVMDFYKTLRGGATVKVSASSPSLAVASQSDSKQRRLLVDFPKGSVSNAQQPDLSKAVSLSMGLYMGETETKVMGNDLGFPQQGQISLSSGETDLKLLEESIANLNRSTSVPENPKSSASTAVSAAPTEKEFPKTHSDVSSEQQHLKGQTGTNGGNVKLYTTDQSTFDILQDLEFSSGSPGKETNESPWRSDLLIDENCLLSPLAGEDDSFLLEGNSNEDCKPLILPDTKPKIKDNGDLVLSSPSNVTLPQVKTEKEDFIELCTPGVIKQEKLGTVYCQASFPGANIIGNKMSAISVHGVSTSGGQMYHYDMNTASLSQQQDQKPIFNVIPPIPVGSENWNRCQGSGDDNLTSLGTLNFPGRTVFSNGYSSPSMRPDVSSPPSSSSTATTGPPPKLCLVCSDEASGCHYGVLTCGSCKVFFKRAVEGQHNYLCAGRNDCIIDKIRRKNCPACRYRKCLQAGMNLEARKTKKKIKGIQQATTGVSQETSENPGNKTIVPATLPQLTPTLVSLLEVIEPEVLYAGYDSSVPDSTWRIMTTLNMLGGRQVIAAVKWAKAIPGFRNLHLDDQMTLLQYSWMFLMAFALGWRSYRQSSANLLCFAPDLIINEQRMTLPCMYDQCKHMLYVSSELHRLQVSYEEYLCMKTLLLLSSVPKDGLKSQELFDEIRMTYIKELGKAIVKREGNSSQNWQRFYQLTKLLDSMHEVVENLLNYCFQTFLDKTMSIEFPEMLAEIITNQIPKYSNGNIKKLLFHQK
pKi: −log10 of the molar value.

Data request: Provide the documented pKi with glucocorticoid receptor (Homo sapiens) as the system for CS(=O)(=O)Nc1cccc(/C=C2/c3ccccc3OCc3c(Cl)cccc32)c1 [Example 622]
Data returned: > 5.00

Data request: Follow-up item: `COc1cccc2c1[C@H](Cc1cccc(NS(C)(=O)=O)c1)c1ccccc1OC2`
Data returned: > 6.30

Data request: Would you kindly repeat that for `CS(=O)(=O)Nc1cccc(/C=C2\c3ccccc3CCc3cc(OCCN4CCOCC4)ccc32)c1` ?
Data returned: > 6.30

Data request: What would you report for `O=c1[nH]c2cc(/C=C3/c4ccccc4COc4ccccc43)ccc2o1` ?
Data returned: > 6.30

Data request: Query `CS(=O)(=O)Nc1cccc(/C=C2\c3ccccc3CCc3ccc(S(C)(=O)=O)cc32)c1` next
Data returned: > 6.00

Data request: Moving on to the next compound: `Nc1nc2ccc(C=C3c4ccccc4CCc4ccccc43)cc2s1`
Data returned: > 6.30

Data request: # repeat for `CS(=O)(=O)Nc1cccc(/C=C2/c3ccccc3CCc3cc(C(F)F)ccc32)c1`
Data returned: > 6.30

Data request: Now the compound `CS(=O)(=O)NCc1ccc(/C=C2/c3ccccc3CCc3cc(Cl)ccc32)cc1`
Data returned: > 5.00
